- assay.name: Dog pharmacokinetic study (intravenous and subcutaneous, 67 μg/kg)
- Assay type: in vivo
- reported.conditions: male, beagle, plasma, 67 ug/kg; dog, intravenous 67 μg/kg, propylene glycol:phosphate buffer (50:50); read-out: t1/2 (converted)
Where a SMILES comes first, the peptide text is derived from it. [ ]: non-standard residue; d: D form. Ala(6-(2-MePh)pyridin-3-yl) = Cc1ccccc1-c1ccc(C[C@H](N)C(=O)O)cn1; Bip(2'-Et-4'-OMe) = CCc1cc(OC)ccc1-c1ccc(C[C@H](N)C(=O)O)cc1; αMePhe(2-F) = C[C@](N)(Cc1ccccc1F)C(=O)O; Aib = CC(C)(N)C(=O)O
readout.type: half-life
Put down the number, then write its unit next to it.

Note half-life for the compound shown: CCc1cc(OC)ccc1-c1ccc(C[C@H](NC(=O)[C@H](CC(=O)O)NC(=O)[C@H](CO)NC(=O)[C@@H](NC(=O)[C@](C)(Cc2ccccc2F)NC(=O)[C@@H](NC(=O)CNC(=O)[C@H](CCC(=O)O)NC(=O)C(C)(C)NC(=O)[C@@H](N)Cc2c[nH]cn2)[C@@H](C)O)[C@@H](C)O)C(=O)N[C@@H](Cc2ccc(-c3ccccc3C)nc2)C(N)=O)cc1 [SEQ ID NO: 9] (H-H[Aib]EGT[αMePhe(2-F)]TSD[Bip(2'-Et-4'-OMe)][Ala(6-(2-MePh)pyridin-3-yl)]-NH2)
5.1 h

---

- assay.name: Dog pharmacokinetic study (intravenous and subcutaneous, 67 μg/kg)
- Assay type: in vivo
- reported.conditions: male, beagle, plasma, sc, 67 ug/kg; dog, subcutaneous 67 μg/kg, propylene glycol:phosphate buffer (50:50)
Where a SMILES comes first, the peptide text is derived from it. [ ]: non-standard residue; d: D form. Ala(6-(2-MePh)pyridin-3-yl) = Cc1ccccc1-c1ccc(C[C@H](N)C(=O)O)cn1; Bip(2'-Et-4'-OMe) = CCc1cc(OC)ccc1-c1ccc(C[C@H](N)C(=O)O)cc1; αMePhe(2-F) = C[C@](N)(Cc1ccccc1F)C(=O)O; Aib = CC(C)(N)C(=O)O
readout.type: Tmax (h)
State the answer as a number, implicitly in h.

State, in one line, measured Tmax of CCc1cc(OC)ccc1-c1ccc(C[C@H](NC(=O)[C@H](CC(=O)O)NC(=O)[C@H](CO)NC(=O)[C@@H](NC(=O)[C@](C)(Cc2ccccc2F)NC(=O)[C@@H](NC(=O)CNC(=O)[C@H](CCC(=O)O)NC(=O)C(C)(C)NC(=O)[C@@H](N)Cc2c[nH]cn2)[C@@H](C)O)[C@@H](C)O)C(=O)N[C@@H](Cc2ccc(-c3ccccc3C)nc2)C(N)=O)cc1 [SEQ ID NO: 9] (H-H[Aib]EGT[αMePhe(2-F)]TSD[Bip(2'-Et-4'-OMe)][Ala(6-(2-MePh)pyridin-3-yl)]-NH2)
5

---

- assay.name: Dog pharmacokinetic study (intravenous and subcutaneous, 67 μg/kg)
- Type: in vivo
- reported.conditions: male, beagle, plasma, 67 ug/kg; dog, intravenous 67 μg/kg, propylene glycol:phosphate buffer (50:50)
Where a SMILES comes first, the peptide text is derived from it. [ ]: non-standard residue; d: D form. Ala(6-(2-MePh)pyridin-3-yl) = Cc1ccccc1-c1ccc(C[C@H](N)C(=O)O)cn1; Bip(2'-Et-4'-OMe) = CCc1cc(OC)ccc1-c1ccc(C[C@H](N)C(=O)O)cc1; αMePhe(2-F) = C[C@](N)(Cc1ccccc1F)C(=O)O; Aib = CC(C)(N)C(=O)O
readout.type: MRT (h)
Write the answer as a number in h, unit excluded.

Give the reported MRT for this molecule. CCc1cc(OC)ccc1-c1ccc(C[C@H](NC(=O)[C@H](CC(=O)O)NC(=O)[C@H](CO)NC(=O)[C@@H](NC(=O)[C@](C)(Cc2ccccc2F)NC(=O)[C@@H](NC(=O)CNC(=O)[C@H](CCC(=O)O)NC(=O)C(C)(C)NC(=O)[C@@H](N)Cc2c[nH]cn2)[C@@H](C)O)[C@@H](C)O)C(=O)N[C@@H](Cc2ccc(-c3ccccc3C)nc2)C(N)=O)cc1 [SEQ ID NO: 9] (H-H[Aib]EGT[αMePhe(2-F)]TSD[Bip(2'-Et-4'-OMe)][Ala(6-(2-MePh)pyridin-3-yl)]-NH2)
3
